Examples of molecules with documented MIC follow.
- Test system: Staphylococcus aureus
- PROTOCOL: Antimicrobial activity against […] Staphylococcus aureus ATCC43300 measured after 24 hrs by CLSI protocol based microdilution method
- Format: functional
OBSERVATION_TYPE: MIC

INSERT INTO assay_data (molecule, observation_type, test_value) VALUES
  ('Cn1c(C2CC(=O)N(CCc3ccccc3)C2)nc2ccccc21 (stereo unspecified)', 'MIC', '> 32 µg/mL'),
  ('CCn1c(C2CC(=O)N(c3cccc(Br)c3C)C2)nc2ccccc21 (stereo unspecified)', 'MIC', '2 µg/mL'),
  ('Cc1cccc(NC(=O)c2nc3ccccc3n2C)c1C', 'MIC', '> 32 µg/mL'),
  ('Cc1ccccc1N1CC(c2nc3ccccc3n2C)CC1=O (stereo unspecified)', 'MIC', '32 µg/mL'),
  ('Cn1c(CCC(=O)Nc2ccccc2)nc2ccccc21', 'MIC', '> 32 µg/mL'),
  ('Cn1c(CCC(=O)NCCNC(=O)Cc2ccccc2)nc2ccccc21', 'MIC', '> 32 µg/mL');
